system: A/Aichi/2/68 (H3N2); test: microbe, parasite or virus in culture; format: cell-based; settings: Influenza A virus, MDCK, read-out: Cell Protection Assay EC50 ± SD
pEC50: −log10 of the molar value.
READOUT_LABEL: pEC50

{"COMPOUND": "O=C(O)[C@H]1C2CCC(CC2)C1Nc1nc(-c2c[nH]c3ncc(F)cc23)ncc1F (stereo partly shown) [Compound (1)]", "READOUT_LABEL": "pEC50", "DATA_VALUE": 8.85}

----------
assay: physchem; settings: water, thermodynamic from solid
Where a name gives a salt, the structure may show the parent alone.
READOUT_LABEL: solubility thermodynamic

{"MOLECULE": "O=C(O)[C@H]1C2CCC(CC2)C1Nc1nc(-c2c[nH]c3ncc(F)cc23)ncc1F (stereo partly shown) [Form A of HCl salt of Compound (1).½H2O]", "READOUT_LABEL": "solubility thermodynamic", "DATA_VALUE": "600 µg/mL"}
